Target: cyclooxygenase-1 (Homo sapiens, UniProt P23219)
Construct: endogenous in cells; host or cells: U-937 (Korean cell line bank)
Sequence (P23219 24-599): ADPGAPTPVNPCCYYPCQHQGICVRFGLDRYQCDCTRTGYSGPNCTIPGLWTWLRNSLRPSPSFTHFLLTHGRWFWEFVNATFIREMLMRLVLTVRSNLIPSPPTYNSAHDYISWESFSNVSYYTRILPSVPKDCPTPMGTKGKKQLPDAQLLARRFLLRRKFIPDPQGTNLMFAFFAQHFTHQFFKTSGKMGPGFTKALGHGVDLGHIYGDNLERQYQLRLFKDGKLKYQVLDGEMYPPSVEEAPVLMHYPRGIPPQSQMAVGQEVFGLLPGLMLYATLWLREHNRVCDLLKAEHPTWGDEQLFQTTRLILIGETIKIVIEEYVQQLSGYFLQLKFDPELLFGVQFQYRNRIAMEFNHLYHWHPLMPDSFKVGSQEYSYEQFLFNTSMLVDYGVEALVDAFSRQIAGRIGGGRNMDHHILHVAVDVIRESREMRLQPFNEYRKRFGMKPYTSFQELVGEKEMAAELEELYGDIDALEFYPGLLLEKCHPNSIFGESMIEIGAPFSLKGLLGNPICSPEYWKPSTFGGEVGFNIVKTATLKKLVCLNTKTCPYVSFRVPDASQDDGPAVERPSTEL
Assay: Cyclooxygenase-1 inhibition in U-937 cells (PGE2 quantitation after arachidonic acid)
Format: cell-based
Details: 1 μM, U-937 cells
Method: In order to investigate pharmacologically the selective inhibition activity against cyclooxygenase-2 enzyme, the inhibitive effects against cyclooxygenase-1 and cyclooxygenase-2 were measured by two methods as follows. Then, the pellet was diluted with 1×HBSS (Hank's balanced salt solutin) at the concentration of 1×10^6 cells/ml, and 1 ml of them was transferred into each of 12-well plates, and then dissolved with DMSO. […]
Inhibitory effects of cyclooxygenase (COX): COX-1 (U-937) for assorted molecules
measure name: Inhibitory effects of cyclooxygenase (COX): COX-1 (U-937)

> print(dat)
                                   molecule        assay.value
1  CS(=O)(=O)c1ccc(-c2ncccc2OC2CCCC2)cn1 [Example 2]  12.7 % inhibition
2  C[C@H](CO)COc1cccnc1-c1ccc(S(C)(=O)=O)nc1 [Example 5]  13.5 % inhibition
3  CS(=O)(=O)c1ccc(-c2ncccc2OC2CCCCC2)cn1 [Example 3]  11.2 % inhibition
4  CC(C)=CCOc1cccnc1-c1ccc(S(C)(=O)=O)nc1 [Example 4]  12.2 % inhibition
5  C[C@@H](CO)COc1cccnc1-c1ccc(S(C)(=O)=O)nc1 [Example 6]  14.3 % inhibition
6  CC(C)Oc1cccnc1-c1ccc(S(C)(=O)=O)nc1 [Example 1]   0.2 % inhibition
